- study.system: cGMP-specific 3',5'-cyclic phosphodiesterase (Homo sapiens, UniProt O76074)
- protocol.text: Inhibition of PDE5A1 (unknown origin) using [3H]-cGMP substrate incubated for 15 mins by liquid scintillation counting method
measured.parameter: IC50 (nM)
One number for each entry, in nM.

Inquiry: Provide IC50 value for the following compound: COc1cc2c(cc1OC)C(=O)C(CC1CCN(Cc3ccccc3)CC1)C2 (stereo unspecified)
Reply text: 11

* * *

- study.system: cAMP and cAMP-inhibited cGMP 3',5'-cyclic phosphodiesterase 10A (Homo sapiens, UniProt Q9Y233)
- Sequence (Q9Y233 whole entry, the tested form may be a part): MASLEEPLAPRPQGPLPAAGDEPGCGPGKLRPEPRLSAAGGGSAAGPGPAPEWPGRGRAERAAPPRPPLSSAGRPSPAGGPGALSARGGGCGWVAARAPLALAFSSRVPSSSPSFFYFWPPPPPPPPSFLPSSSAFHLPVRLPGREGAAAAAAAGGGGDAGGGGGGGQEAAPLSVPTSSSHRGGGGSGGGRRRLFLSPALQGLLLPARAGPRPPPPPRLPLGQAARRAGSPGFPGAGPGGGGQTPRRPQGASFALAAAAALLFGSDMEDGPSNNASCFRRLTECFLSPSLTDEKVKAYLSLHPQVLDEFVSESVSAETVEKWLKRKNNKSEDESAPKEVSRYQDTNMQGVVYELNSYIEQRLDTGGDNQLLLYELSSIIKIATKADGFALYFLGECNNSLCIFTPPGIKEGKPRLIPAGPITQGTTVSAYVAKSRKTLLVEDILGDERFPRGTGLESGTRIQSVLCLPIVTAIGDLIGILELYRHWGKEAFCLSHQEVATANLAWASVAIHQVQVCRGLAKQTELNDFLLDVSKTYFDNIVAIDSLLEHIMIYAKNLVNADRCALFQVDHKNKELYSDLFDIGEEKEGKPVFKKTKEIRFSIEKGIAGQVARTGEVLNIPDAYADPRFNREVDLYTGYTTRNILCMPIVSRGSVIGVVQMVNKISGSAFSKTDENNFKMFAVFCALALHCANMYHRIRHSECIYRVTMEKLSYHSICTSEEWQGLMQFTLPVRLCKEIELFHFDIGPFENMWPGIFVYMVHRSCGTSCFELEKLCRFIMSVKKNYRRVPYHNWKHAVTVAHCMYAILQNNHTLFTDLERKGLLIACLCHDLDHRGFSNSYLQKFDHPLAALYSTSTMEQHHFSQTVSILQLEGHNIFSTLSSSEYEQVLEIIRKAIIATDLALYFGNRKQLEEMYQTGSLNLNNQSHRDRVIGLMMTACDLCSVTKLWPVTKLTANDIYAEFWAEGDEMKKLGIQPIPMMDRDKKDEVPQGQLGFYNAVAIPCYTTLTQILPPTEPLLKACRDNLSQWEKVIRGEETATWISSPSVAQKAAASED
- protocol.text: Inhibition of his-tagged recombinant human PDE10A catalytic domain extracted from Escherichia coli BL21(DE3) using [3H]-cAMP as substrate incubated for 10 mins by SPA assay
measured.parameter: pIC50
One number for each entry, as −log10 of the molar value.

Inquiry: Note pIC50 for the compound shown: O=c1c(/C=C/c2nc3cc(Cl)ccc3n2-c2ccccc2)coc2ccc(F)cc12
Reply text: 8.02

* * *

What IC50 was measured for each of the following?
- study.system: UniProtKB O76074
- protocol.text: Inhibition of PDE5A (unknown origin)
Numbers only, in nM.

Recorded IC50, per entry:
- smi: "CCc1cc(C#N)cc2c(NCc3ccc(OC)c(Cl)c3)c(COCCF)cnc12"
  measured.parameter: "IC50"
  test.value: 33.4
- smi: "O=C1[C@H]2Cc3c([nH]c4ccccc34)[C@@H](c3ccc4c(c3)OCO4)N2C(=O)CN1CCC1CCN(Cc2ccccc2)CC1"
  measured.parameter: "IC50"
  test.value: 0.15
- smi: "COc1ccc(CNc2c(COCCF)cnc3c(C4CC4)cc(C#N)cc23)cc1Cl"
  measured.parameter: "IC50"
  test.value: 8

Below are 2 molecules. Give each one its IC50.
1. CC(C)CCn1c2c(c3c(O)cc(O)cc31)CCn1c-2nc2ccccc2c1=O
2. O=C1[C@@H]2Cc3c([nH]c4ccccc34)[C@@H](c3ccc4c(c3)OCO4)N2C(=O)CN1CCC1CCN(Cc2ccccc2)CC1

Reply text:
1. 36
2. 1.63

Inquiry: Identify measured IC50 corresponding to COc1ccc([C@@H]2c3[nH]c4ccccc4c3C[C@H]3C(=O)N(CCC4CCN(Cc5ccccc5)CC4)CC(=O)N23)cc1
Reply text: 3.2

* * *

Exercise: state measured pIC50 for each of the molecules provided.
- study.system: High affinity cGMP-specific 3',5'-cyclic phosphodiesterase 9A (Homo sapiens, UniProt O76083)
- Sequence (O76083 whole entry): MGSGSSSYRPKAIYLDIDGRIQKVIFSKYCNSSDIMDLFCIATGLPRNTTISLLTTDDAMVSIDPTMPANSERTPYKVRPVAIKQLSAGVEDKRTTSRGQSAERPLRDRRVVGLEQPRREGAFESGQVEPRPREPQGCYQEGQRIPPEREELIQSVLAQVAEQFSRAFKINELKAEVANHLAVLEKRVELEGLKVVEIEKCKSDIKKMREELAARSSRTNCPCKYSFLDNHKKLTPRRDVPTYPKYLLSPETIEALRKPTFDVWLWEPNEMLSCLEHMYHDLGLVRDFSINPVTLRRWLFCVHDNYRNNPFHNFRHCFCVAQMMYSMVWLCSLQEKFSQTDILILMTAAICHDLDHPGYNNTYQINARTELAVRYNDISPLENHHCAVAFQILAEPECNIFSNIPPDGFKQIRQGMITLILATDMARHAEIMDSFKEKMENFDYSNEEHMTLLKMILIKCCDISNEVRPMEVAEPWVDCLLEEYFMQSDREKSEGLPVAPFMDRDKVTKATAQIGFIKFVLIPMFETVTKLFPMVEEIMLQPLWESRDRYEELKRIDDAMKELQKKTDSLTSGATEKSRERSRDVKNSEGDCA
One number for each entry, as −log10 of the molar value.

Before answering, review these 4 worked examples.
- molecule: "O=C1NC(=O)/C(=C/c2ccc(OCCNc3nc4c(cnn4C4CCCC4)c(=O)[nH]3)c(F)c2)S1"
  test.value: 8.96
- molecule: "CCCCn1c(=O)n(CC)c(=O)c2[nH]c(-c3cccc(C(C)C)c3)cc21"
  test.value: 4.42
- molecule: "CC(C)=CCc1c2c(c3occ(-c4ccc(OS(C)(=O)=O)c(OS(C)(=O)=O)c4)c(=O)c3c1O)CCC(C)(C)O2"
  test.value: 8.28
- molecule: "C[C@@H](NC(=O)/C=C/c1cccc(O)c1)c1nc2c(cnn2C2CCCC2)c(=O)[nH]1"
  test.value: 7.24

Now, please, on to the next molecule.
Inquiry: In one line, give reported pIC50 of the entry C[C@@H]1CC(Cc2ccc(C(=O)NO)cc2)C[C@H]1c1nc2c(cnn2C2CCCC2)c(=O)[nH]1 (stereo not given in full) .
Reply text: 6.97

// provenance: ChEMBL document CHEMBL5608165
